src = paper PMC10819430

Measured 3D-EEM Peak B Position λex/λem, listed per entry for reference.
- tested_target: HSA (Homo sapiens, UniProt P02768)
- Construct: HSA (≥96%) and six PFAS were all purchased from Aladdin Chemicals (Shanghai, China); purchased Aladdin Chemicals (Shanghai, China)
- Sequence (P02768 25-609): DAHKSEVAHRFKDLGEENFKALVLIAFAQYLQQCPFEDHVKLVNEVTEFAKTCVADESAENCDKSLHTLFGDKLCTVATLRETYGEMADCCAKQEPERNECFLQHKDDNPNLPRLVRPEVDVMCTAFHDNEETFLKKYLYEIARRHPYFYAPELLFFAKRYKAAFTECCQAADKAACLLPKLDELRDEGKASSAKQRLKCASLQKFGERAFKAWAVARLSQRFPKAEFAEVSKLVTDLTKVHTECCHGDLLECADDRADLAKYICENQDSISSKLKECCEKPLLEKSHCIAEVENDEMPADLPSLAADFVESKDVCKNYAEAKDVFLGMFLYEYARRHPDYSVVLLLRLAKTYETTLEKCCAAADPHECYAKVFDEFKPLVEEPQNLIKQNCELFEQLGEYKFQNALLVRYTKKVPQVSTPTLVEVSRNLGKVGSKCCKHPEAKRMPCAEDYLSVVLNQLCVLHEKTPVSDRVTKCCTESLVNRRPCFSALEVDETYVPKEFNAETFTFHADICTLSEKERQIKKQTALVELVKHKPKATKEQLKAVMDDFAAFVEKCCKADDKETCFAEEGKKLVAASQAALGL
- protocol: 3D-EEM fluorescence spectra of HSA–PFAS
- measurement_context: HSA 1 × 10^−6, PFAS 1.8 × 10^−5 mol·L^−1
recorded_metric: 3D-EEM Peak B Position λex/λem

In [3]: df
Out[3]:
                                   compound  obs_value
0  O=C(O)C(F)(F)OC(F)(F)C(F)(F)OC(F)(F)C(F)(F)OC(F)(F)F [PFO3DA, Perfluoro-3,6,9-trioxadecanoic Acid]    230/325
1  O=C(O)C(F)(F)C(F)(F)C(F)(F)C(F)(F)C(F)(F)C(F)(F)C(F)(F)C(F)(F)F [PFNA, Perfluorononanoic Acid]    230/310
2  O=C(O)C(F)(F)C(F)(F)C(F)(F)C(F)(F)C(F)(F)C(F)(F)C(F)(F)F [PFOA, Perfluorooctanoic Acid]    230/327
